biological target: Neuromedin-U receptor 2 (Homo sapiens); assay: Agonist activity at human NMUR2 expressed in HEK293 cells at 1 to 100 nM by calcium mobilization assay relative to NMU; type: functional, cell-based
Sequence (Q9GZQ4 whole entry): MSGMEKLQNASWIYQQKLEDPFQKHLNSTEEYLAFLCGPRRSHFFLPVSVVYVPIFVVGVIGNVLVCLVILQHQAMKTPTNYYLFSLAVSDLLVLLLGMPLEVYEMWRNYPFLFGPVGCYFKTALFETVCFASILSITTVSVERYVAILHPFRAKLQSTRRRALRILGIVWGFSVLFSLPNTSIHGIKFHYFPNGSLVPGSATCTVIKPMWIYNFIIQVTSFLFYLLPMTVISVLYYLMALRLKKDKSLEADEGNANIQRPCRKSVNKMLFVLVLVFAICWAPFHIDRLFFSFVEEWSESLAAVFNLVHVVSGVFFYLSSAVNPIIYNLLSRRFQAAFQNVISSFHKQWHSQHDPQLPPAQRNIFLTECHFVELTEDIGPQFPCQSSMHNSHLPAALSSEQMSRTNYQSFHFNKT
Calls of active or inactive are those of the source. The rule behind the calls is not given here. Where a SMILES comes first, the peptide text is derived from it. The star is where a group is joined. Hydrocinnamoyl = O=C(CCc1ccccc1)*

{"compound": "CC(C)C[C@H](NC(=O)CCc1ccccc1)C(=O)N[C@@H](Cc1ccccc1)C(=O)N[C@@H](CCCNC(=N)N)C(=O)N1CCC[C@H]1C(=O)N[C@@H](CCCNC(=N)N)C(=O)N[C@@H](C)C(N)=O (Hydrocinnamoyl-LFRPRA-NH2)", "Activity": "inactive"}
{"compound": "CC(C)C[C@H](NC(=O)CCc1ccccc1)C(=O)N[C@@H](Cc1ccccc1)C(=O)N[C@@H](CCCNC(=N)N)C(=O)N1CCC[C@H]1C(=O)N[C@@H](CCCNC(=N)N)C(=O)N[C@@H](CC(=O)O)C(N)=O (Hydrocinnamoyl-LFRPRD-NH2)", "Activity": "inactive"}

* * *

target: Neuromedin-U receptor 1 (Homo sapiens) (UniProt Q9HB89); assay: Agonist activity at human NMUR1 expressed in HEK293 cells at 1 to 100 nM by calcium mobilization assay relative to NMU; type: functional, cell-based
Sequence (Q9HB89 whole entry): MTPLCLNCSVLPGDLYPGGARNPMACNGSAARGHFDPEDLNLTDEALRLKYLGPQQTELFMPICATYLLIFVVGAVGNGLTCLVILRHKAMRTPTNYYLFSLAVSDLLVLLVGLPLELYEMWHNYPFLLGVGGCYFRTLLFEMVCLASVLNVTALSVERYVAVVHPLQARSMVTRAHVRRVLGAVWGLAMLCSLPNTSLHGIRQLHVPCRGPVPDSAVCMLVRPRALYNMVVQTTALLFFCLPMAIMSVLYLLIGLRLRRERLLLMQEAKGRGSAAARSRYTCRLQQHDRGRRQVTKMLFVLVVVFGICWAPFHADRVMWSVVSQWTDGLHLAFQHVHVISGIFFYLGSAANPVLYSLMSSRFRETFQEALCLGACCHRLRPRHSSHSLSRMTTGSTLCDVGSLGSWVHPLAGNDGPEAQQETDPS
Activity calls are given as the source filed them. The calls are words filed in the database; no cut-off is given here. Where a SMILES comes first, the peptide text is derived from it. The star is where a group is joined. Propanoyl(3-(3-pyridyl)) = O=C(CCc1cccnc1)*; Hydrocinnamoyl = O=C(CCc1ccccc1)*
Outcomes: active, inactive

{"compound": "CC(C)C[C@H](NC(=O)CCc1ccccc1)C(=O)N[C@@H](Cc1ccccc1)C(=O)N[C@@H](CCCNC(=N)N)C(=O)N1CCC[C@H]1C(=O)N[C@@H](CCCNC(=N)N)C(=O)N[C@@H](CCC(N)=O)C(N)=O (Hydrocinnamoyl-LFRPRQ-NH2)", "assigned-class": "inactive"}
{"compound": "CC(C)C[C@H](NC(=O)CCc1cccnc1)C(=O)N[C@@H](Cc1ccccc1)C(=O)N[C@@H](CCCNC(=N)N)C(=O)N1CCC[C@H]1C(=O)N[C@@H](CCCNC(=N)N)C(=O)N[C@@H](CC(N)=O)C(N)=O ({Propanoyl(3-(3-pyridyl))}-LFRPRN-NH2)", "assigned-class": "active"}
{"compound": "N=C(N)NCCC[C@H](NC(=O)[C@@H]1CCCN1C(=O)[C@H](CCCNC(=N)N)NC(=O)[C@H](Cc1ccccc1)NC(=O)[C@H](Cc1ccccc1)NC(=O)CCc1cccnc1)C(=O)N[C@@H](CC(N)=O)C(N)=O ({Propanoyl(3-(3-pyridyl))}-FFRPRN-NH2)", "assigned-class": "active"}
{"compound": "CC(C)C[C@H](NC(=O)CCc1ccccc1)C(=O)N[C@@H](Cc1ccc(O)cc1)C(=O)N[C@@H](CCCNC(=N)N)C(=O)N1CCC[C@H]1C(=O)N[C@@H](CCCNC(=N)N)C(=O)N[C@@H](CC(N)=O)C(N)=O (Hydrocinnamoyl-LYRPRN-NH2)", "assigned-class": "inactive"}

* * *

biological target: Neuromedin-U receptor 2 (Mus musculus, UniProt Q8BZ39); test: Agonist activity at mouse NMUR2 expressed in HEK293 cells by calcium mobilization assay; format: functional, cell-based
Sequence (Q8BZ39 whole entry): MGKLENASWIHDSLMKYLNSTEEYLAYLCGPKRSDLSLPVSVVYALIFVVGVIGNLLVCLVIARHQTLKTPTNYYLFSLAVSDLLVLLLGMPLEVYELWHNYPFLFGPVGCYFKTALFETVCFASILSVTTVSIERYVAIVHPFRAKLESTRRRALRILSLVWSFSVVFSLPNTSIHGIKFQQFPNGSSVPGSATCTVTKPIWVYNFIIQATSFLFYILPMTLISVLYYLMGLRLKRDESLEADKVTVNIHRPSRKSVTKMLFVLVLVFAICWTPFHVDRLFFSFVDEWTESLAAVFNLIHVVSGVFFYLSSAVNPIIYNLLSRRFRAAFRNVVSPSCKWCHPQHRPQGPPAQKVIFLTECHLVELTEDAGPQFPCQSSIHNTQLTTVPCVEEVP
readout-name: EC50 (nM)

{"substance": "H-YFLFAPRN-NH2", "result-number": 156}
